Just for reference, patent US20230235078A1 is where these values come from.

measured_on: T1, Human DDR1 extracellular domain (ECD) protein (human, UniProt Q08345 21-417)
T1 construct: it is treated here as the same molecule; also called recombinant human DDR1 ECD; huDDR1 ECD; not shown: 6xHIS-tag
assay_details: ELISA on DDR1, antibody at 10 and 1 µg/ml

binder	binding result
DDR1-26 (antibody, V domains shown, also called DDR1-26K/DDR1-26H) VH: EQSLKESGGDLVKPGASLTLTCTASGFDLSSNYYMCWVRQAPGKGPEWIACIYSSNTRTWYARWAKGRFTISKTSSTAVTLQMTSLTAADTATYFCARGGWTNYLWGPGTLVTISS VL: ELDLTQTPSSVSAAVGGTVTISCQSSESVYSNNHLAWYQQKPGQPPKLLIYAASTLASGVPSRFSGSGSGTQFTLTISGVQCDDAAVYYCLGGYNDDANFGGGTEVVVK	binds
DDR1-34 (antibody, V domains shown, Rabbit variable domains; Detected with anti-rabbit HRP antibody in the DDR2 ELISA; also called DDR1-34K/DDR1-34H) VH: QSVKESGGGLVKPEGSLTLTCKASGFDLSSYYYMCWVRQAPGKGLEWIACIYTSSGATWYANWAKGRFTISKTSSTTVTLQMTALTAADTATYFCARGGWCDFNLWGPGTLVTISS VL: ELDLTQTPASVSAAVGGTVTISCQSSENLYKDNYLAWYQQKPGQPPKLLIYGASNLASGVPSRFKGSGSGTQFTLTISDLECDDAATYYCAGGYDSVVDFGGGTEVVVK	binds
